Where do the numbers come from? From ChEMBL document CHEMBL1201862.

Listing: GI50 of selected molecules
# Test system: OVCAR-3
# Test: NCI tumour cell line growth inhibition, 48 h
The source made the active and inactive calls. Rule as the data show it: active = GI50 up to about 1.1 µM and inactive = higher.
Measured endpoint: GI50

* COc1cccc(/C=N/n2c(-c3ccccc3)n[nH]c2=O)c1 | > 100 µM (inactive)
* CC(=O)c1ccc(/N=N/N2CCCC2)cc1 | > 100 µM (inactive)
* COC(=O)c1c(N)n[nH]c1N | > 100 µM (inactive)
* CCOC1OC(C)(C=C(C#N)C#N)CCC1C (stereo unspecified) | 24.5 µM (inactive)
* COc1cc(Cl)c2c3c(c(C(=O)c4ccccc4)oc13)CCC2 | > 100 µM (inactive)
* O=C(O)Cc1ccc(/N=N/c2c(O)c(C(=O)O)cc3ccccc23)cc1 | > 100 µM (inactive)
